The measured values listed here are drawn from patent US20240115557A1.

# Normalized Z rep1 values compiled below
# ASSAYED SYSTEM: SpCas9 (Streptococcus pyogenes serotype M1)
# Sequence (Q99ZW2 whole entry): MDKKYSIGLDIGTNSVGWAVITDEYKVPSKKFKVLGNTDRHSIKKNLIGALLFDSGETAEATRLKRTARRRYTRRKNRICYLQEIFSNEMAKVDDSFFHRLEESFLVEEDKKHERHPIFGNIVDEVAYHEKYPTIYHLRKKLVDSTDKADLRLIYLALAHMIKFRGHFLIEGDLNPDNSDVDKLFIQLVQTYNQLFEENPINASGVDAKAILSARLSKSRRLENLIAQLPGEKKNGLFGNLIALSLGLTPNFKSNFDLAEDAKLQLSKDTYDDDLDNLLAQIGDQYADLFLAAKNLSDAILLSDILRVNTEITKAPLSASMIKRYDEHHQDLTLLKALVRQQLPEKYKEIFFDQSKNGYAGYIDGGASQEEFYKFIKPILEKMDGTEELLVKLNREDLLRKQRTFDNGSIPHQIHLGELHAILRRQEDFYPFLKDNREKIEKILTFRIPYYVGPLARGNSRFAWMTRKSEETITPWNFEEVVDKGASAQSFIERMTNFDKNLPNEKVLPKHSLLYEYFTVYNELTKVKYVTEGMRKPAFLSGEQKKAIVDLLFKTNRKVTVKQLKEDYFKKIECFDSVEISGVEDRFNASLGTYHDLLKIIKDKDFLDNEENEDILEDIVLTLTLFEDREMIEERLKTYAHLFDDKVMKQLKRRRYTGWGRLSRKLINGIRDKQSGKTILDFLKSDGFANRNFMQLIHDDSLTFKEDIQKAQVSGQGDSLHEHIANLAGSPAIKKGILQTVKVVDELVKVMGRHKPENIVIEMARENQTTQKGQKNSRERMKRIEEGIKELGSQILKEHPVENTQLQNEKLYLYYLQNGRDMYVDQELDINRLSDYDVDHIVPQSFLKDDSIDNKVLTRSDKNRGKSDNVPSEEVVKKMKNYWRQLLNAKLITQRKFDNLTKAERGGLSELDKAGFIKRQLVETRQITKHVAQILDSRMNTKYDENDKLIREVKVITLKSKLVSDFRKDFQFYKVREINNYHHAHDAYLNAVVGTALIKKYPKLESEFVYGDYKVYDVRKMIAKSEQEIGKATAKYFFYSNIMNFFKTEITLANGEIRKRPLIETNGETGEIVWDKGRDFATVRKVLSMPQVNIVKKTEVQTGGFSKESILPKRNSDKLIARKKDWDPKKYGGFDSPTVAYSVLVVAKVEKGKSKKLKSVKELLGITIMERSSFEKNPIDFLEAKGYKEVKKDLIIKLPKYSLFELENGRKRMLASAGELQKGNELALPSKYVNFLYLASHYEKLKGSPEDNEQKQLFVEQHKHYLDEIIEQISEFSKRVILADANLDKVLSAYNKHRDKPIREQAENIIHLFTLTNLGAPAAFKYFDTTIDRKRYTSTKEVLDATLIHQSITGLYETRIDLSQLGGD
# METHOD SUMMARY: eGFP disruption assay, SpCas9, U2OS.eGFP.PEST cells
# Type: cell-based
# PARTICULARS: replicate 1
MEASUREMENT KIND: Normalized Z rep1

1. CS(=O)(=O)Nc1cnc(N2CCC(C(N)=O)(N3CCCCC3)CC2)c(C(=O)O)c1 [Compound F293-0183]	−0.19
2. COc1ccc(-c2cc(N3CCN(C(=O)c4ccc(C(C)(C)C)cc4)CC3)ncn2)cc1 [Compound M130-0012]	−0.10
3. CN(C)c1ccc(-c2nn3c(-c4ccc5ccccc5n4)nnc3s2)cc1 [Compound D727-0755]	−0.11
4. Brc1cccc(-c2nn3c(-c4ccccn4)nnc3s2)c1 [Compound D727-0489]	−0.24
5. CN(C)S(=O)(=O)Nc1ccc(N2CCC(CCN3CCOCC3)CC2)c(C(=O)O)c1 [Compound F294-0900]	−0.19
6. CC(C)NC(=O)CN1CCN(c2ccc(C(=O)O)cc2NC(=O)c2ccccc2Cl)CC1 [Compound F086-0028]	−0.55
7. Cc1nc2ccccc2n1Cc1nnc2sc(-c3cccnc3)nn12 [Compound D727-0182]	−0.45
8. COc1ccc(-c2nnc3sc(-c4cccnc4)nn23)cc1OC [Compound D727-0025]	−0.28
9. Brc1ccc(OCc2nn3c(-c4ccccn4)nnc3s2)cc1 [Compound D727-0522]	−0.12
10. COCCCNC(=O)CN1CCN(c2ccc(C(=O)O)cc2NC(=O)c2ccccc2Cl)CC1 [Compound F086-0033]	−0.26
11. CCc1cccc(-n2nnnc2N2CCN(C(=O)Nc3ccc(C)cc3Cl)CC2)c1 [Compound L378-0331]	−0.41
12. CN(C)c1cccc(-c2nn3c(-c4ccc5ccccc5c4)nnc3s2)c1 [Compound D727-0754]	−0.15
13. CCC(=O)Nc1ccccc1Sc1cc(C)nc2ncnn12 [Compound F518-0049]	−0.09
14. Fc1cccc(-c2nnc3sc(-c4ccc5ccccc5n4)nn23)c1 [Compound D727-0892]	−0.28
15. CCC(C)NC(=O)c1cccc(Oc2cc(-c3ccccc3)ncn2)c1 (centres unmarked) [Compound L663-0996]	−0.03
16. CCCCN(CC)C(=O)C1CCCN(c2ccc(-c3ccccc3C)nn2)C1 (centres unmarked) [Compound F305-0129]	−0.32
17. Cc1cccc(C(=O)Nc2ccccc2Sc2cc(C)nc3ncnn23)c1 [Compound F518-0014]	−0.36
